Tested on: Escherichia coli TOP10;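 note: peptides expressed intracellularly from a pBAD plasmid library in pooled LB shake-flask culture, induced with 0.3% L-arabinose, DNA abundance read by NGS, three biological replicates, DESeq2 with apeglm shrinkage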
Method Notes: shrunken log2 fold change of peptide-encoding DNA abundance (4.5 h post-induction vs induction); higher = less antimicrobial activity (less host growth inhibition)
Measurement Context: time post-induction: 4.5 h; library: site-saturation at positions 5, 18, 19, 20
Each entry gets No if its shrunken log2 fold change stays under 0.09, and Yes if its shrunken log2 fold change is 0.09 or above.

(Q) Threshold query (shrunken log2 fold change >= 0.09) on RRIRDRPPRLPRPRPRPTYLPRP
(A) No

(Q) Does the sequence RRIRERPPRLPRPRPRPLWGPRP have recorded shrunken log2 fold change that is 0.09 or more?
(A) No

(Q) Exam item: decide whether the reported shrunken log2 fold change for RRIRRRPPRLPRPRPRPLWSPRP is at least 0.09.
(A) Yes

(Q) Confirm if shrunken log2 fold change reported for the sequence RRIRMRPPRLPRPRPRPMCDPRP is 0.09 or above.
(A) Yes

(Q) Item RRIRSRPPRLPRPRPRPKPIPRP with shrunken log2 fold change of 0.09 or above?
(A) Yes

(Q) Quick check: does RRIRTRPPRLPRPRPRPMLVPRP have shrunken log2 fold change greater than or equal to 0.09?
(A) No

(Q) Is shrunken log2 fold change for RRIRIRPPRLPRPRPRPIRDPRP at or above 0.09?
(A) No

(Q) Answer whether shrunken log2 fold change of RRIRQRPPRLPRPRPRPINKPRP is greater than or equal to 0.09.
(A) No

(Q) Kindly determine if shrunken log2 fold change recorded for RRIRLRPPRLPRPRPRPCHKPRP is above or exactly 0.09.
(A) No

(Q) shrunken log2 fold change >= 0.09 for RRIRMRPPRLPRPRPRPNFYPRP ?
(A) No

(Q) Does the sequence RRIRCRPPRLPRPRPRPFHAPRP have recorded shrunken log2 fold change that is 0.09 or more?
(A) No
